Source: Sander's compilation of Henry's law constants (doi:10.1007/bf02268351)

- EXPERIMENT_DESCRIPTION: Henry solubility constant Hcp at 298.15 K (mol/(m3 Pa))
- MEASUREMENT_CONDITIONS: reference: Kolb et al. (1992)
Given measured Henry solubility constant Hcp, output met if it is greater than or equal to 0.002 and not met if not.

I'd appreciate it if you could say whether CC(=O)CC(C)C [4-methyl-2-pentanone] has Henry solubility constant Hcp at least equal to 0.002.
met

Item: ClC(Cl)=C(Cl)Cl [tetrachloroethene]
not met

# iterate: CCCCOC(C)=O [butyl ethanoate]
met

Same lookup for CCOC(C)=O [ethyl ethanoate] , please.
met

Entry to check: CCCCCC [hexane]
not met

// query: Cc1ccccc1 [methylbenzene]
not met

// next record CC(Cl)(Cl)Cl [1,1,1-trichloroethane]
not met

Check C1CCCCC1 [cyclohexane] too.
not met

What about Cc1ccccc1C [1,2-dimethylbenzene] ?
not met

Again, but for CC(C)O [2-propanol]
met
